- Method Summary: AUC in nu/nu mouse at 10 mg/kg, po by LC-MS analysis
- Format: ADME, organism-based
- Test Settings: in vivo
Readout Name: AUC

> print(dat)
                                   compound  test.result
1  CN1CCN(c2ccc(OC(F)(F)F)c(Nc3ncc4c(n3)-c3c(c(C(N)=O)nn3CCO)CC4)c2)CC1 [ONVANSERTIB]       2 µM·h

----------
- Method Summary: Half-life in Sprague-Dawley rat at 10 mg/kg, iv by LC-MS analysis
- Format: ADME, organism-based
- Test Settings: in vivo
Readout Name: half-life (h)

> print(dat)
                                        smi  test.result
1  CN1CCN(c2ccc(OC(F)(F)F)c(Nc3ncc4c(n3)-c3c(c(C(N)=O)nn3CCO)CC4)c2)CC1          2.7
